Exercise: state measured CD8 T cell proliferation [% of control], Donor B, 1 nM antibody for each of the binders provided.
- target_under_test: T1, cell-bound CD73 (human, UniProt P21589 27-549)
- T1 sequence (looked up): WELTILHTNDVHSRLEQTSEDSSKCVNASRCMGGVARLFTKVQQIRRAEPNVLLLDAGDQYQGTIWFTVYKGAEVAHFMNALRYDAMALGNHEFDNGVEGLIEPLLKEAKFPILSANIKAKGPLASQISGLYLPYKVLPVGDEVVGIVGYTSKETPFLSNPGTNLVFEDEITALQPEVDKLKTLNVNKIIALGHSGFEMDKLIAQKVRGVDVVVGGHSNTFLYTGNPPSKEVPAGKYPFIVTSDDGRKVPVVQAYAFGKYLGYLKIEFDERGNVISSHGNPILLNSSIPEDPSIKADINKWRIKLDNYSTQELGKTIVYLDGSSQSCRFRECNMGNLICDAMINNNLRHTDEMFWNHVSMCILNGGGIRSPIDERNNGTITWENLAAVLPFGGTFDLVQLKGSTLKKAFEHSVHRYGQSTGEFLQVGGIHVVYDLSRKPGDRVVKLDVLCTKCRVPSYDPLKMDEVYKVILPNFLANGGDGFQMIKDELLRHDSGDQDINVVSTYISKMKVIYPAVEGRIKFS
- assay_summary: cell-based or functional assay
Give the number; % is assumed, so skip it.

Query: Fill in: CD8 T cell proliferation [% of control], Donor B, 1 nM antibody of C4 (antibody, human IgG1, kappa, L234A L235A, V domains shown, Humanized monoclonal antibody; also called C04; inventive anti-CD73 antibody C4) VH: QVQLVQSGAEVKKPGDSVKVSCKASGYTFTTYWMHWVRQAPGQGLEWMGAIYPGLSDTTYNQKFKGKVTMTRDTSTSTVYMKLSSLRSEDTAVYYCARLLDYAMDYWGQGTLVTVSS VL: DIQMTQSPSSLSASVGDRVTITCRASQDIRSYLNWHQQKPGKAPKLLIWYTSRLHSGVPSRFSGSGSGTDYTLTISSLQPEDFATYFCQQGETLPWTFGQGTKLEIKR is ___
Response: 70.3

Query: Can you look up the measured CD8 T cell proliferation [% of control], Donor B, 1 nM antibody of C2 (antibody, human IgG1, kappa, L234A L235A, V domains shown, Humanized monoclonal antibody; also called anti-CD73 antibody C2) VH: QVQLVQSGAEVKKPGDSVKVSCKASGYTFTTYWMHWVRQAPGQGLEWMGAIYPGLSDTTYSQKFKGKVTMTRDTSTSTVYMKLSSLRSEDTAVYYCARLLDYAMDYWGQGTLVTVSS VL: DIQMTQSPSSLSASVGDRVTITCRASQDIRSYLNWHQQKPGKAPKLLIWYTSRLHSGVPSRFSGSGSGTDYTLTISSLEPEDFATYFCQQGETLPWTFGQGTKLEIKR for me?
Response: 68.5

Query: Which value of CD8 T cell proliferation [% of control], Donor B, 1 nM antibody has been reported for B2 (antibody, human IgG1, kappa, L234A L235A, V domains shown, Humanized monoclonal antibody; also called anti-CD73 antibody B2) VH: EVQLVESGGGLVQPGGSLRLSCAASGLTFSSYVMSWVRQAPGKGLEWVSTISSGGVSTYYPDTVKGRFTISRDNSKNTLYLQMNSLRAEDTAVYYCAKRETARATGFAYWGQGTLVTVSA VL: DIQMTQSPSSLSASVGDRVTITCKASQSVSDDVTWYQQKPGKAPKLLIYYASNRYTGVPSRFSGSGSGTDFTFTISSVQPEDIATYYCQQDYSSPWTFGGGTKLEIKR in the records?
Response: 62.2
